Where these numbers come from: PubChem BioAssay AID1745844

- Test system: rodent lifetime carcinogenesis bioassay, tumor incidence TD50
- EXPERIMENTAL PROTOCOL: carcinogenic potency in animals, long-term in vivo studies, CPDB compilation (AID 1745844)
- CONDITION DETAILS: rat; strain Fischer 344; males; in feed; site: kidney; lesion: tubular-cell adenoma; dosed 103 weeks; study length 104 weeks

# COMPOUND, TD50
measured = [
    ("O=P(OCC(Br)CBr)(OCC(Br)CBr)OCC(Br)CBr (stereo unspecified)", "1.57 mg/kg/day"),
]

###

- System: rodent lifetime carcinogenesis bioassay, tumor incidence TD50
- EXPERIMENTAL PROTOCOL: carcinogenic potency in animals, long-term in vivo studies, CPDB compilation (AID 1745844)
- CONDITION DETAILS: mouse; strain B6C3F1; females; by gavage; site: myocardium; lesion: sarcoma, NOS; dosed 52 weeks; study length 82 weeks

# QUERY SMILES, MEASURED TARGET, TD50
rows = [
    ("C[C@]12CC[C@@H]3c4ccc(OC(=O)Cc5ccc(N(CCCl)CCCl)cc5)cc4CC[C@H]3[C@@H]1CC[C@@H]2OC(=O)Cc1ccc(N(CCCl)CCCl)cc1", "rodent lifetime carcinogenesis bioassay, tumor incidence TD50", "3.22 mg/kg/day"),
]

###

- System: rodent lifetime carcinogenesis bioassay, tumor incidence TD50
- EXPERIMENTAL PROTOCOL: carcinogenic potency in animals, long-term in vivo studies, CPDB compilation (AID 1745844)
- CONDITION DETAILS: rat; strain Han:WIST; females; inhaled; site: kidney; lesion: tubular-cell adenoma; dosed 78 weeks; study length 156 weeks
Calls of active or inactive are those of the source. How the calls were made is not given here.
MEASURED ENDPOINT: TD50

# QUERY SMILES, MEAS VALUE
measured = [
    ("ClC=C(Cl)Cl", "5500 mg/kg/day (inactive)"),
]

###

- Test system: rodent lifetime carcinogenesis bioassay, tumor incidence TD50
- EXPERIMENTAL PROTOCOL: carcinogenic potency in animals, long-term in vivo studies, CPDB compilation (AID 1745844)
- CONDITION DETAILS: rat; strain Osborne-Mendel; females; in feed; site: liver; lesion: several types; types named in the paper; dosed 104 weeks; study length 104 weeks

# QUERY SMILES, TD50
records = [
    ("CCN(Cc1cccc(S(=O)(=O)O)c1)c1ccc(C(=C2C=CC(=[N+](CC)Cc3cccc(S(=O)(=O)[O-])c3)C=C2)c2ccccc2)cc1", "13800 mg/kg/day"),
]

###

- Test system: rodent lifetime carcinogenesis bioassay, tumor incidence TD50
- EXPERIMENTAL PROTOCOL: carcinogenic potency in animals, long-term in vivo studies, CPDB compilation (AID 1745844)
- CONDITION DETAILS: rat; strain Fischer 344; females; by gavage; site: liver; lesion: neoplastic nodule; dosed 78 weeks; study length 78 weeks
MEASURED ENDPOINT: TD50 (mg/kg/day)

# QUERY SMILES, MEASURE UNIT, MEAS VALUE
records = [
    ("COC(N)=O", "mg/kg/day", 159),
]

###

- System: rodent lifetime carcinogenesis bioassay, tumor incidence TD50
- EXPERIMENTAL PROTOCOL: carcinogenic potency in animals, long-term in vivo studies, CPDB compilation (AID 1745844)
- CONDITION DETAILS: mouse; strain Swiss; males; i.p.; site: liver; lesion: several types; types named in the paper; dosed 26 weeks; study length 72 weeks

# QUERY SMILES, TD50 / mg/kg/day
measured = [
    ("CN(N=O)C(=O)N[C@@H](C=O)[C@@H](O)[C@H](O)[C@H](O)CO", 27.3),
]

###

- System: rodent lifetime carcinogenesis bioassay, tumor incidence TD50
- EXPERIMENTAL PROTOCOL: carcinogenic potency in animals, long-term in vivo studies, CPDB compilation (AID 1745844)
- CONDITION DETAILS: rat; strain Charles River CD (Sprague-Dawley); females; inhaled; site: nose; lesion: squamous-cell carcinoma; dosed 104 weeks; study length 104 weeks

# QUERY SMILES, TD50
measured = [
    ("C=COC(C)=O", "2220 mg/kg/day"),
]

###

- Test system: rodent lifetime carcinogenesis bioassay, tumor incidence TD50
- EXPERIMENTAL PROTOCOL: carcinogenic potency in animals, long-term in vivo studies, CPDB compilation (AID 1745844)
- CONDITION DETAILS: mouse; strain ICR/Jcl; both sexes; in feed; site: lung; lesion: adenoma; dosed 54 weeks; study length 54 weeks
MEASURED ENDPOINT: TD50

# QUERY SMILES, MEASURED ENDPOINT, MEAS VALUE
records = [
    ("Cn1cc(C(=O)O)c(=O)c2ccc(/C=C/c3ccc([N+](=O)[O-])o3)nc21", "TD50", "8.03 mg/kg/day"),
]

###

- System: rodent lifetime carcinogenesis bioassay, tumor incidence TD50
- EXPERIMENTAL PROTOCOL: carcinogenic potency in animals, long-term in vivo studies, CPDB compilation (AID 1745844)
- CONDITION DETAILS: rat; strain Sprague-Dawley; females; in feed; site: all sites; lesion: myeloid leukemia; dosed 78 weeks; study length 104 weeks
Activity calls are given as the source filed them. How the calls were made is not given here.

# QUERY SMILES, MEASURED TARGET, TD50
data = [
    ("CCOc1ccc(NC(C)=O)cc1", "rodent lifetime carcinogenesis bioassay, tumor incidence TD50", "2560 mg/kg/day (inactive)"),
]

###

- Test system: rodent lifetime carcinogenesis bioassay, tumor incidence TD50
- EXPERIMENTAL PROTOCOL: carcinogenic potency in animals, long-term in vivo studies, CPDB compilation (AID 1745844)
- CONDITION DETAILS: mouse; strain Charles River CD1; females; in drinking water; site: all sites; lesion: hemangiosarcoma; dosed 52 weeks; study length 52 weeks
MEASURED ENDPOINT: TD50 (mg/kg/day)

# QUERY SMILES, MEASURED TARGET, MEAS VALUE
data = [
    ("CN(C)N", "rodent lifetime carcinogenesis bioassay, tumor incidence TD50", 80.8),
]

###

- System: rodent lifetime carcinogenesis bioassay, tumor incidence TD50
- EXPERIMENTAL PROTOCOL: carcinogenic potency in animals, long-term in vivo studies, CPDB compilation (AID 1745844)
- CONDITION DETAILS: mouse; strain CDF1; females; in feed; site: liver; lesion: several types; types named in the paper; dosed 96 weeks; study length 96 weeks
MEASURED ENDPOINT: TD50

# QUERY SMILES, MEAS VALUE
rows = [
    ("Cn1c(N)nc2c3cccnc3ccc21", "17.5 mg/kg/day"),
]

###

- System: rodent lifetime carcinogenesis bioassay, tumor incidence TD50
- EXPERIMENTAL PROTOCOL: carcinogenic potency in animals, long-term in vivo studies, CPDB compilation (AID 1745844)
- CONDITION DETAILS: mouse; strain AP Alderly Park; females; in feed; site: liver; lesion: hepatocellular adenoma; dosed 78 weeks; study length 78 weeks
The source made the active and inactive calls. How the calls were made is not given here.
Outcome codes: 1 (yes) for active, 0 (no) for inactive

# QUERY SMILES, CLASSIFICATION
records = [
    ("CCOC(=O)C(C)(C)Oc1ccc(Cl)cc1", "0 (no)"),
    ("COC(=O)C(C)(C)Oc1ccc(-c2ccc(Cl)cc2)cc1", "1 (yes)"),
]

###

- Tested on: rodent lifetime carcinogenesis bioassay, tumor incidence TD50
- EXPERIMENTAL PROTOCOL: carcinogenic potency in animals, long-term in vivo studies, CPDB compilation (AID 1745844)
- CONDITION DETAILS: rat; strain Fischer 344; females; in feed; site: liver; lesion: hepatocellular adenoma + hepatocellular carcinoma + neoplastic nodule; dosed 104 weeks; study length 104 weeks
MEASURED ENDPOINT: TD50 (mg/kg/day)

# QUERY SMILES, MEASURED TARGET, MEAS VALUE
rows = [
    ("C[C@H]1CCCC(=O)CCC/C=C/c2cc(O)cc(O)c2C(=O)O1", "rodent lifetime carcinogenesis bioassay, tumor incidence TD50", 33.5),
]

###

- Test system: rodent lifetime carcinogenesis bioassay, tumor incidence TD50
- EXPERIMENTAL PROTOCOL: carcinogenic potency in animals, long-term in vivo studies, CPDB compilation (AID 1745844)
- CONDITION DETAILS: monkey; strain Cynomolgus [Macaca fascicularis]; both sexes; in feed; site: skull; lesion: rhabdomyosarcoma; dosed 928 weeks; study length 1135 weeks

# QUERY SMILES, TD50
rows = [
    ("CN(N=O)C(N)=O", "23.9 mg/kg/day"),
]

###

- Test system: rodent lifetime carcinogenesis bioassay, tumor incidence TD50
- EXPERIMENTAL PROTOCOL: carcinogenic potency in animals, long-term in vivo studies, CPDB compilation (AID 1745844)
- CONDITION DETAILS: rat; strain Fischer 344; males; in drinking water; site: lung; lesion: adenoma; dosed 111 weeks; study length 111 weeks

# QUERY SMILES, TD50 (mg/kg/day)
rows = [
    ("CN(CCCC(=O)c1cccnc1)N=O", 0.279),
]
